Tested on: OVCAR-4 ovarian
METHOD_NOTES: NCI tumour cell line growth inhibition, 48 h
OBSERVATION_TYPE: TGI (µM)
Your answer is read as µM, so omit the unit and give the number.

Past entries and their recorded results:
1. N/N=C(\c1nc2ccc(Cl)cc2[nH]c1=O)C(O)c1ccc(Cl)c(Cl)c1 (stereo unspecified) :: 87.8
2. C[C@H]1COCCN1c1cc(C2(S(=O)(=O)C3CC3)CC2)nc(-c2ccc(NC(=S)NCCO)cc2)n1 :: 0.233

Measured TGI of COC1=CC(c2ccc[nH]2)=N/C1=C\c1[nH]c(C)c(CC(=O)OCc2ccccc2)c1C : 5.17

The reported value for Cc1c(Cl)cccc1N=NC(=O)NNc1cccc(Cl)c1C in terms of TGI is 25.9

Looking up CCCCCCCCCCCCCC[n+]1ccc(C(N)=O)cc1 , I found its TGI recorded as 18.2

Reported TGI ( COC1=C(C)C(=O)C2=C(C1=O)C1C3CC4=C(C(=O)C(OC)=C(C)C4=O)C(CNC(=O)C(C)O)N3C(C#N)C(C2)N1C (stereo unspecified) ) = 0.334

// sample O=C(c1ccco1)c1c(C(F)(F)F)n([O-])c2cc(C(F)(F)F)ccc2[n+]1=O , its TGI was 3.94

Input Cc1[nH]c2ccccc2c1/C=N/NC(=O)c1cccc(I)c1 . Output TGI: 43.2

The recorded TGI for entry CC([C@H]1CC=C2C3CCC4=C[C@@H](N(C)C)CC[C@]4(C)C3CC[C@@]21C)N(C)C (stereo partly specified) equals 21.9

Consider O=C(Nc1ccccc1-c1nn(CN2CCNCC2)c(=S)n(CN2CCNCC2)c1=O)C(F)(F)F . Its measured TGI is 35.2

// sample COC(=O)[C@]1(c2ccc(N(C)C)cc2OC)C[C@@H]2CCCN(CCc3c1[nH]c1ccccc31)C2 , its TGI was 28.2

Consider COC(=O)C1CC(OC(C)=O)C=C2C(=O)CCC21 (stereo unspecified) . Its measured TGI is 45.1

Reported TGI for C[n+]1c2ccccc2nc2ccccc21 was 1.75

###

Consider the following compounds and their measured TGI readings.
Test system: UACC-62 melanoma
METHOD_NOTES: NCI tumour cell line growth inhibition, 48 h

1. CCN(CC)c1ccc(/C=C2\CCc3ccc([N+](=O)[O-])cc3C2=O)cc1 :: > 100 µM

NC(N)=NC(N)=NCCCc1ccco1 yielded TGI of 111 µM

TGI in this record for C=CCOC(=O)N1c2ccc(O)cc2[C@@]23O[C@@]24[C@@H]1C#C/C=C\C#C[C@]3(O)C(OC)(OC)C[C@@H]4C : > 100 µM

# compound COC1=C(C)C(=O)C2=C(C1=O)C1C3CC4=C(C(=O)C(OC)=C(C)C4=O)C(CNC(=O)C(C)O)N3C(C#N)C(C2)N1C (centres undefined) ; its TGI = < 0.01 µM

Lab book: TGI of CC(=O)O[C@H]1C(=O)[C@@]2(C)[C@H]([C@H](OC(=O)c3ccccc3)[C@]3(O)C[C@H](OC(=O)[C@H](O)[C@@H](NC(=O)c4ccccc4)c4cccc(N(C)C)c4)C(C)=C1C3(C)C)[C@]1(OC(C)=O)CO[C@@H]1C[C@@H]2O noted as > 50.2 µM

The recorded TGI for entry CC(=O)NNc1nc(C)c(C(=O)/C=C/c2ccc(Cl)cc2)s1 equals > 100 µM
